Assay: Mouse plasma and brain pharmacokinetic study
Format: in vivo
Details: mouse, in vivo, ip; male CD1 mice, single 40 mg/kg i.p.
PROPERTY: half-life

**Query** Report half-life for Cc1[nH]c(C)c(S(=O)(=O)Nc2ccc(C(F)(F)F)c(Cl)c2)c1C(=O)N1CCC(F)(F)C1 [Cmp. 17] please.
**Result** ~4 h

###

Please go through the items and note down their Emax.
Target: D3 DAR (Homo sapiens)
Assay: Go BRET activation assay, D3 DAR
Format: cell-based
Conditions: 5 min; EC80 DA (30 nM); read-out: D3 Go BRET Imax

Some compounds with recorded Emax:
STRUCTURE	RECORDED RESULT
CCc1ccc(NS(=O)(=O)c2c(C)[nH]c(C)c2C(=O)N2CCCC2)cc1Cl	80 to 100%
Cc1[nH]c(C)c(S(=O)(=O)Nc2ccc(F)cc2)c1C(=O)N1CCCC1	> 100%
Cc1[nH]c(C)c(S(=O)(=O)Nc2ccc(C(F)(F)F)c(Cl)c2)c1C(=O)N1CCC(F)(F)C1	> 100%
Cc1[nH]c(C)c(S(=O)(=O)Nc2ccc(C3CC3)c(Cl)c2)c1C(=O)N1CCC(F)(F)C1	80 to 100%

Provide each entry's Emax from the list below.
1. Cc1[nH]c(C)c(S(=O)(=O)Nc2ccc(Cl)cc2C(F)(F)F)c1C(=O)N1CCC(F)(F)C1
2. Cc1[nH]c(C)c(S(=O)(=O)Nc2cccc(Cl)c2)c1C(=O)N1CCCC1
3. CCc1ccc(NS(=O)(=O)c2c(C)[nH]c(C)c2C(=O)N2CCCC2)cc1
4. Cc1[nH]c(C)c(S(=O)(=O)Nc2ccc(C(C)C)cc2)c1C(=O)N1CCCC1
5. Cc1ccc(NS(=O)(=O)c2c(C)[nH]c(C(F)(F)F)c2C(=O)N2CCCC2)cc1Cl
6. Cc1[nH]c(C)c(S(=O)(=O)Nc2ccc(Cl)c(C(F)(F)F)c2)c1C(=O)N1CCCC1

**Result**
1: > 100%; 2: > 100%; 3: 80 to 100%; 4: > 100%; 5: > 100%; 6: > 100%

###

Please go through the items and note down their pIC50.
Target: D3 DAR (Homo sapiens)
Assay: Functional curve-shift assays using the DiscoverX β-arrestin recruitment assay
Format: cell-based
Design: host or cells: CHO
Conditions: agonist dopamine; read-out: Functional IC50 for decreasing the Emax of dopamine
One number for each entry, as −log10 of the molar value.

Some molecules with recorded pIC50:
STRUCTURE	TARGET OR SYSTEM	pIC50
Cc1[nH]c(C)c(S(=O)(=O)Nc2ccc(C(F)(F)F)c(Cl)c2)c1C(=O)N1CCC(F)(F)C1	D3 DAR (Homo sapiens)	5.77
Cc1[nH]c(C)c(S(=O)(=O)Nc2ccc(C(F)(F)F)c(Cl)c2)c1C(=O)N1CCCC1	D3 DAR (Homo sapiens)	5.64
Cc1[nH]c(C)c(S(=O)(=O)Nc2ccc(C(F)(F)F)c(Br)c2)c1C(=O)N1CCCC1	D3 DAR (Homo sapiens)	5.44

**Query** Report pIC50 for Cc1ccc(NS(=O)(=O)c2c(C)[nH]c(C)c2C(=O)N2CCCC2)cc1Cl please.
**Result** 4.77

###

Target: D3 DAR (Homo sapiens, UniProt P35462)
Sequence (P35462 whole entry): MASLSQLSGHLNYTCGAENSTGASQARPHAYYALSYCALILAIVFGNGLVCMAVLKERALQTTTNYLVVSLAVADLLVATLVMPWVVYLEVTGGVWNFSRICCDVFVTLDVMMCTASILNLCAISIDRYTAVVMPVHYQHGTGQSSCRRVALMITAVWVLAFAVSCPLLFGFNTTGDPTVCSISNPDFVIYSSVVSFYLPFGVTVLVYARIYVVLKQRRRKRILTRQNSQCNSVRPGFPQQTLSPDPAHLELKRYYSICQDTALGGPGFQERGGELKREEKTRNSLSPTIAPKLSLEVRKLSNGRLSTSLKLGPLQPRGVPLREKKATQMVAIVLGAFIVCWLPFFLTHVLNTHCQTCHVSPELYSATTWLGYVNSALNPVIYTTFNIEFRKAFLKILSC
Assay: Functional curve-shift assays using the DiscoverX β-arrestin recruitment assay
Type: cell-based
Design: host or cells: CHO
Details: agonist pramipexole; read-out: Functional IC50 for decreasing the Emax of pramipexole
PROPERTY: IC50
Please make sure the unit comes right after the number.

**Query** Report IC50 for Cc1ccc(NS(=O)(=O)c2c(C)[nH]c(C)c2C(=O)N2CCCC2)cc1Cl [Cmp. 1] please.
**Result** 14 µM
